Reference source: patent US11896573B2

Experiment: Multiple ascending dose study, plasma pharmacokinetics of Compound (1) and GHB
Assay type: in vivo, human
Conditions: human, plasma, oral, 6 g/day, Cohort 8 (6.0 g/day divided into equal 2 doses), Dosing Day 4; read-out: Compound (1) plasma T1/2, Median (converted)
readout_name: half-life (min)
Value expressed in min; do not type the unit.

Inquiry: Item under review: CC(C)[C@H](N)C(=O)OCCCC(=O)O [Compound (1), 4-((L-valyl)oxy)butanoic acid] . Reported half-life?
Reply text: 16.2

* * *

Assay: Single ascending dose study, plasma pharmacokinetics of Compound (1) and GHB
Assay type: in vivo, human
Conditions: human, plasma, 1.5 g; Cohort 3 (1.50 g) single oral dose, fasted; read-out: Compound (1) plasma Tmax, Median
readout_name: Tmax (h)
Value expressed in h; do not type the unit.

Inquiry: Item under review: CC(C)[C@H](N)C(=O)OCCCC(=O)O . Reported Tmax?
Reply text: 1
